Assign 8OG:A repair function score to each entry below.
B1: library; numbered along this chain (parent)
chain: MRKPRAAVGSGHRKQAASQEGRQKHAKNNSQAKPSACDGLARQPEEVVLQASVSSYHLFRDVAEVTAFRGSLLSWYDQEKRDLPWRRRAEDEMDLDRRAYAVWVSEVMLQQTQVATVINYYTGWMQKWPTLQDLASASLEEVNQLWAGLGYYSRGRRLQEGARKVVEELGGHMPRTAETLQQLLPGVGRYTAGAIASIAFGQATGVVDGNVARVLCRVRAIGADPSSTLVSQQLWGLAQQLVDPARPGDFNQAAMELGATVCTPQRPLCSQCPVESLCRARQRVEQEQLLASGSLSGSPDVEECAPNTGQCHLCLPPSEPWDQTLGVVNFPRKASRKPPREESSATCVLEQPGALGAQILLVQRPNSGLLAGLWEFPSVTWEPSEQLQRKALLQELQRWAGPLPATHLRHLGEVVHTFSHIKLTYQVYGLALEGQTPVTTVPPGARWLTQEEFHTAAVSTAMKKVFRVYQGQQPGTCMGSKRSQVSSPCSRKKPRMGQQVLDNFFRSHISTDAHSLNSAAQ

variants of: B1; experiment: 8OG:A repair function score (normalized; synonymous = 0, nonsense = -1) (normalized log-likelihood score); higher = more repair activity (WT-like); details: with 8OG:A DNA repair reporter (GFP) in HEK-293 MUTYH KO cells;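 note: cells sorted at 72 h after reporter transfection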
// return a plain number; no unit text

Per the record, `D61V` has 8OG:A repair function score of -0.137

Briefly, 8OG:A repair function score measured for `G201P` : -1.06

Recorded 8OG:A repair function score (variant `P306N` ): -0.00787

Item: `W124D` | 8OG:A repair function score: -0.574

Lab note: `Q182D` gave 8OG:A repair function score of -0.0172

The measured 8OG:A repair function score associated with `G326L` reads -0.422

Recorded 8OG:A repair function score (variant `L369I` ): -0.0978

The variant identified as `Q233M` registered its 8OG:A repair function score at 0.177

Form: variant = `P443M` ; 8OG:A repair function score = 0.0448

8OG:A repair function score measured on `G401C` = -0.381

response.value for `D77K` (field: 8OG:A repair function score) = -0.0637

Briefly, 8OG:A repair function score measured for `G309C` : -0.165

Recorded result, `T417C` , 8OG:A repair function score: -0.188

Per the record, `G412P` has 8OG:A repair function score of -0.295

8OG:A repair function score in this record for `L72T` : -0.206

response.value for `P174I` (field: 8OG:A repair function score) = -0.9

Value of measured 8OG:A repair function score for the entry `L392K` : -1.03

Kindly note the recorded 8OG:A repair function score for `S270Y` , which is -0.036

Documented 8OG:A repair function score of `Q232D` : -0.0919

Input `R87P` . Output 8OG:A repair function score: -0.0432

# 8OG:A repair function score of `L315A` = -0.104

Record summary for `F453T` : reported 8OG:A repair function score = -0.694

Kindly note the recorded 8OG:A repair function score for `D300E` , which is -0.0547

Record `Q323P` . Reported 8OG:A repair function score: -0.0158

For `V214Y` the variant record lists 8OG:A repair function score as -0.782

8OG:A repair function score recorded for this variant, `P365Y` , is -0.212

Field 8OG:A repair function score (entry `V427P` ) reads -1.13

Please fill in: 8OG:A repair function score reported for `D96F` = -0.446
